- test system: human IgG1 (human)
- measurement description: SPR, Biacore X-100, human IgG1 on the chip, single cycle kinetics

>  <binder>
R3-26 repCK+ori6K (scFv) scFv: QEQLVESGGGLVKPGGTLTLTCTVSGIDLSSYAMSWVRQVPGKGLEWIGIIGSGGGTAYANWARGRFTISRTSSTTVDLRMTSLTTEDTATYFCATDYGIYGYAYGHLWGPGTLVTVTKGGGGSGGGGSGGGGSELVMTQTASPVSAKVGGTVTINCQASQSISTALAWYQQKPGQPPRLLIYDASTLASGVSSRFSGSGSGTEFTLTISDLESADAATYYCQTYFGSDTDNAFGEGTEVEIKGSAAALEHHHHHH

>  <kon / M⁻¹ s⁻¹>
79000

$$$$
>  <binder>
R3-26 repCK+K (scFv) scFv: QEQLVESGGGLVTPGGTLTLTCTVSGIDLSSYAMSWVRQVPGEGLEWIGIIGSGGGTAYANWARGRFTISRTSSTTVDLRMTSLTTEDTATYFCATDYGIYGYAYGHLWGPGTLVTVTSGGGGSGGGGSGGGGSELVMTQTASPVSAAVGGTVTINCQASQSISTALAWYQQRPGQPPRLLIYDASTLASGVSSRFSGSGSGTEFTLTISDLESADAATYYCQTYFGSDTDNAFGEGTEVEITGSAAAGGGGSKIEHHHHHH

>  <kon / M⁻¹ s⁻¹>
56000

$$$$
>  <binder>
R3-26 repCK+ori6K+VH4KVL4K (scFv) scFv: QEQLVESGGGLVKPGGTLTLTCTVSGIDLSSYAMSWVRQVPGKGLEWIGIIGSGGGTAYANWARGRFTISRTSSTTVDLRMTSLTTEDTATYFCATDYGIYGYAYGHLWGPGTLVTVTKKKKKGGGGSGGGGSGGGGSELVMTQTASPVSAKVGGTVTINCQASQSISTALAWYQQKPGQPPRLLIYDASTLASGVSSRFSGSGSGTEFTLTISDLESADAATYYCQTYFGSDTDNAFGEGTEVEIKKKKKGSAAALEHHHHHH

>  <kon / M⁻¹ s⁻¹>
300000

$$$$
